Exercise: state measured IC50 for each of the molecules provided.
# Tested on: HCT116 WT cells
# experiment_summary: HCT116 proliferation assay, WT cells (CellTiter-Glo, 6 days)
# Format: cell-based
# condition_parameters: Homo sapiens, HCT-116, 144 h, read-out: Prolif_HCT116-WT IC50
# unit: µM | format: bare number

Field IC50 (entry CC(c1ncccc1F)N(Cc1ccc(N2CCOCC2)nn1)C(=O)c1cnc2nc(N)c(Br)cc2c1 (stereo in doubt) [Example 730] ) reads 8.46

What the record says about C[C@H](c1ncccn1)N(Cc1ccc(C(F)(F)F)cn1)C(=O)c1ccc2nc(N)cc(Cl)c2c1 [Example 433] : IC50 is 1.17

Form: molecule = Cc1cc2cc(C(=O)N(Cc3ccc(C(F)(F)F)cn3)[C@@H](c3ncccn3)C3CC3)cnc2nc1N [Example 372] ; IC50 = 2.41

Noted for Cc1cc2cc(C(=O)N(Cc3ccc(C(F)(F)F)cn3)[C@@H]3COCC[C@@H]3O)ccc2nc1N (single isomer, unassigned) [Example 471] : its IC50 reads 3.11

Reported IC50 ( Cc1cc2cc(C(=O)N(Cc3ccc(C#N)cc3)[C@H](C)c3ncccn3)ccc2nc1N (single isomer, unassigned) [Example 475] ) = 4.46

// field: IC50; key: CCOc1ccc(CN(C(=O)c2ccc3nc(N)c(Br)cc3c2)[C@H](C)c2ncccn2)nn1 [Example 729] ; value = 6.9

// recorded IC50 for C[C@H](c1ncccn1)N(Cc1ccc(C(F)(F)F)nn1)C(=O)c1cnc2nc(N)c(I)cc2c1 [Example 808] : 19.9

Reported IC50 ( Cc1cc2cc(C(=O)N(Cc3ccc(N)nc3)Cc3ccc(C(F)(F)F)cn3)ccc2nc1N [Example 568] ) = 5.55
